- measurement_target: isolated recombinant JAK1 kinase domain (Homo sapiens (Human))
- Sequence (P23458 875-1153): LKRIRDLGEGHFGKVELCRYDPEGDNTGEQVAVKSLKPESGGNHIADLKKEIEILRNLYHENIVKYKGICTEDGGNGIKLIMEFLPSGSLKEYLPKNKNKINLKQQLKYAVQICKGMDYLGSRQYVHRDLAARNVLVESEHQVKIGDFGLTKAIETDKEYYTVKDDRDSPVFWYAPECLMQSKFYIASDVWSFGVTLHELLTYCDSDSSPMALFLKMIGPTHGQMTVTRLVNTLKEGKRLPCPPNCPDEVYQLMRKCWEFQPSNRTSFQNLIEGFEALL
- protocol_text: JAK1 enzyme assay (Caliper LabChip, peptide phosphorylation)
- Format: biochemical
- particulars: isolated recombinant JAK1 kinase domain, 25 μM ATP
Counter-ions that a name gives are not always drawn.
Can you tell me Ki for the items I'm about to list?

Below, 5 compounds whose answers are already recorded.
[[record]]
compound = "CCN1C[C@@H]2CN(C(=O)Cn3cc(NC(=O)c4cnn5cccnc45)c(-c4cc(Cl)ccc4OC(F)F)n3)C[C@@H]2C1 [Example 5, hydrochloride]"
test_result = "840 pM"

[[record]]
compound = "COCCN(C)C1CCN(C(=O)Cn2cc(NC(=O)c3c(N)nn4cccnc34)c(-c3cc(Cl)ccc3OC(F)F)n2)CC1 [Example 141]"
test_result = "680 pM"

[[record]]
compound = "O=C(Nc1cn(CC(=O)N2C[C@H]3CNC[C@H]3C2)nc1-c1cc(Cl)ccc1OC(F)F)c1cnn2cccnc12 [Example 4]"
test_result = "660 pM"

[[record]]
compound = "O=C(O)CCN1CCN(C(=O)Cn2cc(NC(=O)c3cnn4cccnc34)c(-c3cc(Cl)ccc3OC(F)F)n2)CC1 [Example 353]"
test_result = "320 pM"

[[record]]
compound = "O=C(Nc1sc(N2CCC(N3CC(F)C3)CC2)nc1-c1cc(Cl)ccc1OC(F)F)c1cnn2cccnc12 [Example 194]"
test_result = "2280 pM"


Please report Ki for the following compound: CN(C)C(=O)[C@@H]1CCCN1CC1CCN(C(=O)Cn2cc(NC(=O)c3cnn4cccnc34)c(-c3cc(Cl)ccc3OC(F)F)n2)CC1 [Example 423]
730 pM
